# assay_explanation: Pharmacokinetic analysis, plasma and tissue concentration
# Assay type: in vivo, CD1 mice
# measurement_parameters: CD1, mouse, spleen, po, 1 mg/kg
observation_type: concentration at 2 h (ng/mL)
Numbers only here, please. The scale is ng/mL.

Look at this molecule and give its reported concentration at 2 h. "COC(=O)C[C@](O)(CCCC(C)(C)O)C(=O)O[C@@H]1C(OC)=C[C@]23CCCN2CCc2cc4c(cc2[C@H]13)OCO4"
742

====

# assay_explanation: Pharmacokinetic analysis, plasma and tissue concentration
# Assay type: in vivo, CD1 mice
# measurement_parameters: CD1, mouse, lung, sc, 1 mg/kg
observation_type: concentration at 24 h
State the value with its unit after it.

Look at this compound and give its reported concentration at 24 h. "COC(=O)C[C@](O)(CCCC(C)(C)O)C(=O)O[C@@H]1C(OC)=C[C@]23CCCN2CCc2cc4c(cc2[C@H]13)OCO4"
5.8 ng/mL

====

# assay_explanation: Pharmacokinetic analysis, plasma and tissue concentration
# Format: in vivo, CD1 mice
# measurement_parameters: CD1, mouse, lung, po, 1 mg/kg
observation_type: concentration at 8 h
State the value with its unit after it.

Look at this molecule and give its reported concentration at 8 h. COC(=O)C[C@](O)(CCCC(C)(C)O)C(=O)O[C@@H]1C(OC)=C[C@]23CCCN2CCc2cc4c(cc2[C@H]13)OCO4 [HHT, homoharringtonine]
73.6 ng/mL

====

# assay_explanation: Pharmacokinetic analysis, plasma and tissue concentration
# Format: in vivo, CD1 mice
# measurement_parameters: CD1, mouse, bone marrow, sc, 1 mg/kg
observation_type: concentration at 2 h (ng/mL)
Numbers only here, please. The scale is ng/mL.

Look at this molecule and give its reported concentration at 2 h. "COC(=O)C[C@](O)(CCCC(C)(C)O)C(=O)O[C@@H]1C(OC)=C[C@]23CCCN2CCc2cc4c(cc2[C@H]13)OCO4"
412

====

# assay_explanation: Pharmacokinetic analysis, plasma and tissue concentration
# Format: in vivo, CD1 mice
# measurement_parameters: CD1, mouse, lung, sc, 1 mg/kg
observation_type: concentration at 8 h (ng/mL)
Numbers only here, please. The scale is ng/mL.

Look at this compound and give its reported concentration at 8 h. "COC(=O)C[C@](O)(CCCC(C)(C)O)C(=O)O[C@@H]1C(OC)=C[C@]23CCCN2CCc2cc4c(cc2[C@H]13)OCO4"
62.5

====

# assay_explanation: Pharmacokinetic analysis, plasma and tissue concentration
# Type: in vivo, CD1 mice
# measurement_parameters: CD1, mouse, plasma, sc, 1 mg/kg
observation_type: concentration at 2 h (ng/mL)
Numbers only here, please. The scale is ng/mL.

Look at this compound and give its reported concentration at 2 h. "COC(=O)C[C@](O)(CCCC(C)(C)O)C(=O)O[C@@H]1C(OC)=C[C@]23CCCN2CCc2cc4c(cc2[C@H]13)OCO4"
48.9

====

# assay_explanation: Pharmacokinetic analysis, plasma and tissue concentration
# Format: in vivo, CD1 mice
# measurement_parameters: CD1, mouse, liver, po, 1 mg/kg
observation_type: concentration at 8 h (ng/mL)
Numbers only here, please. The scale is ng/mL.

Look at this molecule and give its reported concentration at 8 h. "COC(=O)C[C@](O)(CCCC(C)(C)O)C(=O)O[C@@H]1C(OC)=C[C@]23CCCN2CCc2cc4c(cc2[C@H]13)OCO4"
173
